- System: Staphylococcus aureus (IFO13276 ATCC6538)
- test-method-notes: Antimicrobial activity, agar medium dilution method (MIC / growth observation)
- Type: cell-based
- Parameters: key: A: antibacterially effective; B: bacteriostatically active; C: some growth inhibiting effective; D: non effective
- experimental-conditions: specimen concentration 50 μg/ml
quantity-name: Antibacterial Effect with Specimen Concentration

>>> df
                                   compound  measured_value
0  COc1cc(O)c(OC)c(OC)c1C1COc2cc(O)ccc2C1 (stereo not shown)               D
1  COC1=C(OC)C(=O)C(C2COc3c(ccc(O)c3OC)C2)=CC1=O (single isomer, unassigned)               A
2  COc1ccc(C2COc3cc(O)ccc3C2)c(OC)c1O (single isomer, unassigned)               A
3  COC1=C(OC)C(=O)C(C2COc3cc(O)ccc3C2)=CC1=O (stereo not shown)               A
